Origin of the recorded values: ChEMBL document CHEMBL1122647

# Test system: L1210
# method.description: Compound was evaluated for its cytotoxicity against the L1210 murine leukemia cell culture
# Assay type: functional
# condition.context: Mus musculus, read-out: ID50 (the source's name)
property: IC50 (nM)
Write the number in nM without appending the unit.

Known IC50 results, listed for orientation:
Nc1nc(N)c2nc(CNc3ccc(C(=O)NC(CCS(=O)(=O)O)C(=O)O)cc3)cnc2n1 (stereo unspecified) = 31
CN(Cc1cnc2nc(N)nc(N)c2n1)c1ccc(C(=O)NC(CS(=O)(=O)O)C(=O)O)cc1 (stereo unspecified) = 340
CN(Cc1cnc2nc(N)nc(N)c2n1)c1ccc(C(=O)NC(CCS(=O)(=O)O)C(=O)O)cc1 (stereo unspecified) = 180
Nc1nc(N)c2nc(CNc3ccc(C(=O)N[C@@H](CCC(=O)O)C(=O)O)cc3)cnc2n1 [AMINOPTERIN] = 3.1
CN(Cc1cnc2nc(N)nc(N)c2n1)c1ccc(C(=O)N[C@@H](CCC(=O)O)C(=O)O)cc1 [METHOTREXATE] = 12

Please look at the following compound next.
In: Quick one: IC50 for Nc1nc(N)c2nc(CNc3ccc(C(=O)NC(CS(=O)(=O)O)C(=O)O)cc3)cnc2n1 (stereo unspecified) ?
Out: 44

---

# key: entry, value: ID50
# system.under.test: UniProt P00375
# Sequence (P00375 whole entry): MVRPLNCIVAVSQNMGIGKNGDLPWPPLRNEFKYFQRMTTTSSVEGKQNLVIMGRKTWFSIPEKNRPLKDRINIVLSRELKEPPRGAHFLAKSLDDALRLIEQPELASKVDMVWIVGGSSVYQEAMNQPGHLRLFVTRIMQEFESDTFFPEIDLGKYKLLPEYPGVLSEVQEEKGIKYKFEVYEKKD
Give the number first and the unit second.

Here are 4 compounds together with their reported answers.
Nc1nc(N)c2nc(CNc3ccc(C(=O)NC(CS(=O)(=O)O)C(=O)O)cc3)cnc2n1 (stereo not given) = 0.065 µM
Nc1nc(N)c2nc(CNc3ccc(C(=O)N[C@@H](CCC(=O)O)C(=O)O)cc3)cnc2n1 [AMINOPTERIN] = 0.04 µM
Nc1nc(N)c2nc(CNc3ccc(C(=O)NC(CCS(=O)(=O)O)C(=O)O)cc3)cnc2n1 (stereo not given) = 0.063 µM
CN(Cc1cnc2nc(N)nc(N)c2n1)c1ccc(C(=O)NC(CS(=O)(=O)O)C(=O)O)cc1 (stereo not given) = 0.045 µM

Now look at this entry.
In: Recall the recorded ID50 for CN(Cc1cnc2nc(N)nc(N)c2n1)c1ccc(C(=O)NC(CCS(=O)(=O)O)C(=O)O)cc1 (stereo not given) with UniProt P00375 and state it.
Out: 0.041 µM
